Assay: AUC in Sprague-Dawley rat chronic renal failure model at 0.3 mg/kg, iv
Format: ADME, organism-based
Design: dose 0.3 mg/kg, route intravenous
Details: in vivo
measurementType: AUC

Prompt: Using the record for Cl.Cl.O=C(Nc1nc2ccccc2s1)N(CCC(c1ccccc1)c1ccccc1)CCN1CCOCC1 , report its AUC.
Response: 162 ng·h/mL

----------
Target: Extracellular calcium-sensing receptor (Homo sapiens, UniProt P41180)
Sequence (P41180 whole entry): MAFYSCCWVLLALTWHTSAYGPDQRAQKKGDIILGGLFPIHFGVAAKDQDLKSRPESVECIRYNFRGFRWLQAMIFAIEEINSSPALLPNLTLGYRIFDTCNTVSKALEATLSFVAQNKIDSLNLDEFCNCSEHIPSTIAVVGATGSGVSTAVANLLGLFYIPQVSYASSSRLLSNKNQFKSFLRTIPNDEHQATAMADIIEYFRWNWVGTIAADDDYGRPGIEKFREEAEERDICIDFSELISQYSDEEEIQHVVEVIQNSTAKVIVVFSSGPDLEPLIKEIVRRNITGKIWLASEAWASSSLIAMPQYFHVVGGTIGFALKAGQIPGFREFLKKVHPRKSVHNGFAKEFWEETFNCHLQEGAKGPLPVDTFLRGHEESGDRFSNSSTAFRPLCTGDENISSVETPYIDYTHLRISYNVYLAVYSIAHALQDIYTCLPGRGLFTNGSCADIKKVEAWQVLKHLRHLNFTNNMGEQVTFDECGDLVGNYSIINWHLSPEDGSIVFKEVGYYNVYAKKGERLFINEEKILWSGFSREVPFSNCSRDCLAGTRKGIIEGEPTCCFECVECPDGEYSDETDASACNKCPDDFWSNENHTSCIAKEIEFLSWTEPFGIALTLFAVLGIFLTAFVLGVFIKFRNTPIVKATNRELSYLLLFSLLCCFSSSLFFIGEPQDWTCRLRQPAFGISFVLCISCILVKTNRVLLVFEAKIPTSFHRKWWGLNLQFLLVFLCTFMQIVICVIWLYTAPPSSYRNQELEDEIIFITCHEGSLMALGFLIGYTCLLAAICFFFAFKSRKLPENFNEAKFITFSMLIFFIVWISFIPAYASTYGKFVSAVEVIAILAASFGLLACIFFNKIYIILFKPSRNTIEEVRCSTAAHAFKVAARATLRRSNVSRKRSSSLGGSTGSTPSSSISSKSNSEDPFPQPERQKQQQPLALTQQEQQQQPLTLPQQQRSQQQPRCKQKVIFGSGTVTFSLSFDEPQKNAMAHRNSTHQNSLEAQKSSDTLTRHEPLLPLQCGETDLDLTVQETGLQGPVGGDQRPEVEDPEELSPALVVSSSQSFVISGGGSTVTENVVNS
Assay: Positive allosteric modulation of human CaSR expressed in CHO cells assessed as increase in intracellular calcium level after 5 hrs by luciferase reporter gene assay
measurementType: pEC50
Scale: pEC50 equals -log10([C]), with [C] in mol/L.

The following molecules have reported results that may help.
O=C(Nc1cnccn1)N(CCC(c1ccccc1)c1ccccc1)CCN1CCOCC1 : 6.35
O=C(O)c1ccc2nc(NC(=O)N(CCC(c3ccccc3)c3ccccc3)CCN3CCOCC3)sc2c1 : 7.00
Cc1cccc2sc(NC(=O)N(CCC(c3ccccc3)c3ccccc3)CCN3CCOCC3)nc12 : 6.22
O=C(Nc1nc2cc(Cl)ccc2o1)N(CCC(c1ccccc1)c1ccccc1)CCN1CCOCC1 : 7.10
CCOC(=O)c1ccc2nc(NC(=O)N(CCC(c3ccccc3)c3ccccc3)CCN3CCOCC3)sc2c1 : 6.70

Would you kindly look at the next entry?
Prompt: For O=C(Nc1nc2c(Cl)cccc2s1)N(CCC(c1ccccc1)c1ccccc1)CCN1CCOCC1 , what is its reported pEC50?
Response: 7.70

----------
Target: Extracellular calcium-sensing receptor (Homo sapiens)
Test: Positive allosteric modulation of human CaSR expressed in CHO cells assessed as increase in intracellular calcium level after 5 hrs by luciferase reporter gene assay
Catalogue of compounds with associated pEC50
The read-out pEC50 is expressed as -log10 of concentration in moles per litre.

Study these solved cases before continuing.
O=C(Nc1cccnc1)N(CCC(c1ccccc1)c1ccccc1)CCN1CCOCC1 : 6.00
CS(=O)(=O)Nc1ccc2sc(NC(=O)N(CCC(c3ccccc3)c3ccccc3)CCN3CCOCC3)nc2c1 : 7.52
CS(=O)(=O)c1ccc2nc(NC(=O)N(CCC(c3ccccc3)c3ccccc3)CCN3CCOCC3)sc2c1 : 7.10
Cc1cc(NC(=O)N(CCC(c2ccccc2)c2ccccc2)CCN2CCOCC2)no1 : 6.70
Cc1cc(C)nc(NC(=O)N(CCC(c2ccccc2)c2ccccc2)CCN2CCOCC2)c1 : 7.10

Prompt: What measured pEC50 goes with Cc1noc(NC(=O)N(CCC(c2ccccc2)c2ccccc2)CCN2CCOCC2)c1C ?
Response: 5.77

Prompt: Look up pEC50: O=C(Nc1nc2ccccc2[nH]1)N(CCC(c1ccccc1)c1ccccc1)CCN1CCOCC1
Response: 7.22
